B1: ZNF263 (parent)
chain: CSECGESFSRSSRLMSHQRTHTG

Variants of: B1
Assay: protein stability index of a GFP-peptide fusion (GPS, HEK-293T) (PSI 1-6); higher = more stable;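 further: lentivirally expressed fusions sorted by FACS into six bins by GFP to DsRed ratio, PSI derived from sequencing read proportions per bin multiplied by bin number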
Settings: c terminus: native
Rule: criterion met for protein stability index not less than 2, criterion not met for anything less.

Answered cases to consult:
CSEVGESFSRSSRLMSHQRTHTG
criterion met
CSECGETFSRSSRLMSHQRTHTG
criterion met
CSECGESFERSSRLMSHQRTHTG
criterion met
CSSCGESFSRSSRLMSHQRTHTG
criterion not met
CSECGESFSRSSRLMSHQRWHTG
criterion not met
CSECGESFSRSSRLMSHQWTHTG
criterion met
PSECGESFSRSSRLMSHQRTHTG
criterion met
CSECGESFSRSSRLMSHQQTHTG
criterion met
CSECGESFSRSSRLMEHQRTHTG
criterion met
CSECGESFSRSSALMSHQRTHTG
criterion met

Request: Check this variant for protein stability index at or above 2: CSECGESFSRSSRLMDHQRTHTG
Result: criterion met

Request: Exam item: decide whether the reported protein stability index for DSECGESFSRSSRLMSHQRTHTG is at least 2.
Result: criterion not met

Request: Is reported protein stability index greater than or equal to 2 here: CSECGEDFSRSSRLMSHQRTHTG
Result: criterion not met

Request: Quick check: does CSECGESFSRSSRLMSHQRTHTA have protein stability index greater than or equal to 2?
Result: criterion met

Request: Determine whether measured protein stability index meets or exceeds 2 for CSVCGESFSRSSRLMSHQRTHTG
Result: criterion met

Request: Check this variant for protein stability index at or above 2: CSECGESFSRISRLMSHQRTHTG
Result: criterion met

Request: Form field: protein stability index at least 2? Entry: CSECGESFSRSSRLMSHTRTHTG
Result: criterion met

Request: Confirm if protein stability index reported for the variant CSACGESFSRSSRLMSHQRTHTG is 2 or above.
Result: criterion met

Request: Check this variant for protein stability index at or above 2: CSECGEGFSRSSRLMSHQRTHTG
Result: criterion met

Request: Threshold query (protein stability index >= 2) on CSECGESGSRSSRLMSHQRTHTG
Result: criterion met

Request: Does protein stability index meet or surpass 2 for CSECGESFSRNSRLMSHQRTHTG ?
Result: criterion met

Request: Threshold query (protein stability index >= 2) on CSECGESFSRSMRLMSHQRTHTG
Result: criterion met

Request: Does the variant CSECGESFSRSSRLMSHQRTHTR have recorded protein stability index that is 2 or more?
Result: criterion met
